Collected growth inhibition values appear next to each entry.
Experiment: NCI Yeast Anticancer Drug Screen. Data for the bub3 strain (AID 167)
Conditions: S. cerevisiae bub3 mutant strain, at 50.0 µM, stronger effect = higher value
This is part of a sample that, as a whole, favours compounds with a hit. Of some 79,000 tested, about 15% had one in any assay.
Report the figure in % without appending any unit label.

Solved cases below.
molecule=O=C1CCCc2ccc3c(c21)CC1(Cc2ccccc2C1)C3 measurement_unit=% assay_value=4.05
molecule=CCN(CC)P(=O)(c1ccc2c(c1)OCCOCCOCCOCCO2)N(CC)CC measurement_unit=% assay_value=33.6
molecule="O=c1[nH]c(=O)n(C2OC(CO)C(O)C2O)cc1I (stereo unspecified)" measurement_unit=% assay_value=5.6

Tell me the measured growth inhibition of CC(C)CNN(CC(C)C)C(N)=O , please. -25.6

Tell me the measured growth inhibition of Nc1ccc(C(=O)N/C(=C\c2cccc([N+](=O)[O-])c2)c2nc3ccc(Cl)cc3[nH]2)cc1 , please. 1

Tell me the measured growth inhibition of CCn1c(O)c(C=Nc2ccccc2)s/c1=N/Nc1nc(C)cs1 , please. -26.7
